# study-target: collagenase (Homo sapiens, UniProt P03956)
# Sequence (P03956 100-469): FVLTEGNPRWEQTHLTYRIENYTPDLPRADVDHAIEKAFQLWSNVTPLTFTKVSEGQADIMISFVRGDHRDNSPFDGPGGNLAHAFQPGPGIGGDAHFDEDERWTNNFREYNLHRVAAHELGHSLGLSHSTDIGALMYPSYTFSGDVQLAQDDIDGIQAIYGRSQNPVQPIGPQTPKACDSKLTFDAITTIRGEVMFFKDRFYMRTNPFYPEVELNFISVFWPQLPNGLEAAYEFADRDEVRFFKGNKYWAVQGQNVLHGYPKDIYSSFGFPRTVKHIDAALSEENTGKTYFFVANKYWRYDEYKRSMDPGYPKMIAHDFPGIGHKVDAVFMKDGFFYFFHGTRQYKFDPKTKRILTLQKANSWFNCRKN
endpoint: IC50 (nM)
Please give a number only; it is taken to be in nM.

Short answer on collagenase (Homo sapiens, UniProt P03956) for `CC(C)C[C@H](NC(=O)[C@H](CCc1ccccc1)N[C@H](CCCCN1C(=O)c2ccccc2C1=O)C(=O)O)C(=O)Nc1ccccc1` , IC50: 250

Origin of values: patent US5932551A
